assay: Pharmacokinetic characterization in healthy mice; format: in vivo, CD-1 mice; details: male, CD-1, plasma, iv; mouse, i.v. 5.5 mg/kg; read-out: volume of distribution (Vd)
property: Vd (L/kg)
Unit L/kg implied. Number only.

Vd lookup needed for "CC(C)C[C@@H]1NC(=O)[C@H](Cc2cccc(NC(=O)CCCS(N)(=O)=O)c2)NC(=O)[C@H](CC(=O)O)NC(=O)[C@H]2CCCN2C(=O)[C@H](CCC(=O)O)NC(=O)[C@@H](NC(=O)[C@H](CCC(N)=O)NC(=O)CN2CCN(C(=O)CN3CCN(CC(=O)O)CCN(CC(=O)O)CCN(CC(=O)O)CC3)CC2)CSCc2cccc(c2)CSC[C@@H](C(N)=O)NC(=O)[C@H](CO)NC(=O)[C@H](Cc2c[nH]c3ccccc23)NC(=O)[C@H]([C@@H](C)O)NC1=O" , thanks. 0.455
